- Test system: R275C/Slo1WT/beta2
- experiment.summary: modulators of BK channel variants, profiling panel, selectivity assay, cell-based, U2OS BacMam, thallium flux, beta subunits (AID 1259406);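 further: initial slope of Thallos dye fluorescence rise after thallium is added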
- experimental.parameters: at 30 µM
# label = yes if log fold change Tl+ flux < -0.009 else no

>>> group_label("Cc1onc(-c2ccccc2)c1C(=O)NC1C(=O)N2C1SC(C)(C)C2C(=O)O (stereo unspecified)")
"yes"
>>> group_label("CN(NC(=O)c1ccc(Cl)s1)c1cnn(-c2cc(Cl)cc(Cl)c2)c(=O)c1Cl")
"no"
>>> group_label("COC(=O)c1cncc(Br)c1")
"yes"
>>> group_label("C[C@]12CC3CC(N)(C1)C[C@@](C)(C3)C2")
"yes"
>>> group_label("O=C(O[C@H]1[C@H](Oc2ccccc2COC(=O)C2(O)C=CCCC2=O)O[C@H](CO)[C@@H](O)[C@@H]1O)c1ccccc1 (stereo partly specified)")
"no"
>>> group_label("O=C(O)CCSc1ccc2ccccc2c1")
"no"

Consider the compound Oc1ccccc1C=NCCN=Cc1ccccc1O . Is its log fold change Tl+ flux strictly less than -0.009? no

Consider the compound Cc1noc(C)c1C(=O)Sc1nccc(C(F)(F)F)n1 . Is its log fold change Tl+ flux strictly less than -0.009? yes

Consider the compound COC(=O)C1=C(C)NC(C)=C(C(=O)OC)C1c1ccccc1 . Is its log fold change Tl+ flux strictly less than -0.009? no

Consider the compound COC(=O)c1c(S(=O)(=O)N2CCOCC2)c(C)n(C)c1C . Is its log fold change Tl+ flux strictly less than -0.009? no

The reported measurements were obtained from PubChem BioAssay.
